Origin of values: patent US8802663B2

target or system: S1P1 (Homo sapiens (Human))
endpoint name: Ki (nM)

INSERT INTO assay_data (mol_smiles, endpoint_name, reading) VALUES
  ('Fc1ccc(F)c(-c2noc(-c3cnn(C4CCCCC4)c3-c3ccccc3)n2)c1', 'Ki', 9);

a: CC(C)Cn1ncc(-c2nc(-c3cc(F)ccc3F)no2)c1-c1ccccc1
b: c1cc(-c2c(-c3nc(-c4ccc5[nH]ncc5c4)no3)cnn2C2CCCCC2)ccn1
c: COCc1c(-c2nc(-c3ccc(OCCCC(=O)O)cc3)no2)cnn1C1CCCCC1
## Task Please give the order of these compounds when sorted by Ki, largest value leading. Please, when replying, give the labels in the order that was requested.
## Result c, b, a

----------
target or system: S1P1 (Homo sapiens (Human), UniProt P21453)
Sequence (P21453 whole entry, species assumed): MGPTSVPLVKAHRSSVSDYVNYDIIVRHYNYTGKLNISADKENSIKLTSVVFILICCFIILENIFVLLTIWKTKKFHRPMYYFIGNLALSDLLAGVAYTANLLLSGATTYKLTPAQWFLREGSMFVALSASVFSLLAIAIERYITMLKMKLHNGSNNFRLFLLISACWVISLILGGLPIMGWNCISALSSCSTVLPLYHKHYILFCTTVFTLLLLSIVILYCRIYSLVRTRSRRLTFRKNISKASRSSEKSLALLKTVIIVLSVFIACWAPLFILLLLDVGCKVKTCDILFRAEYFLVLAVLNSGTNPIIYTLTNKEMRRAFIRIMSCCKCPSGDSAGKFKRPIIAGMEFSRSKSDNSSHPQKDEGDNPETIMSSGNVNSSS
assay explanation: 35S-GTPγS binding, membranes from CHO cells expressing S1P1
particulars: CHO cell membranes
endpoint name: EC50 (µM)

INSERT INTO assay_data (compound, target_or_system, reading) VALUES
  ('CCOC(=O)Cn1ncc(-c2nc(-c3cc(F)ccc3F)no2)c1-c1ccccc1', 'S1P1 (Homo sapiens (Human), UniProt P21453)', 0.096),
  ('COCc1c(-c2nc(-c3ccc(OC4CCNC4)cc3)no2)cnn1C1CCCCC1 (stereo not shown)', 'S1P1 (Homo sapiens (Human), UniProt P21453)', 0.181),
  ('Fc1ccc(F)c(-c2noc(-c3cnn(C4CCC4)c3-c3ccncc3)n2)c1', 'S1P1 (Homo sapiens (Human), UniProt P21453)', 0.402),
  ('CCOC(=O)Cn1ncc(-c2nc(-c3cc(F)ccc3F)no2)c1-c1ccncc1', 'S1P1 (Homo sapiens (Human), UniProt P21453)', 0.172),
  ('COCc1c(-c2nc(-c3ccc(O)cc3)no2)cnn1C1CCCCC1', 'S1P1 (Homo sapiens (Human), UniProt P21453)', 0.082);

I: COCc1c(-c2nc(-c3cc(F)ccc3F)no2)cnn1-c1ccccc1
II: Fc1ccc(F)c(-c2noc(-c3cnn(-c4ccccc4)c3-c3ccccc3)n2)c1
## Task # return whichever of I and II has the smaller EC50 Provide the label of your selected option as the answer.
## Result II
(II: 0.077 µM, I: 0.304 µM)

----------
target or system: S1P1 (Homo sapiens (Human), UniProt P21453)
assay explanation: 35S-GTPγS binding, membranes from CHO cells expressing S1P1
particulars: CHO cell membranes
pEC50: −log10 of the molar value.
endpoint name: pEC50

INSERT INTO results (molecule, target_or_system, reading) VALUES
  ('OCc1ccc(-c2noc(-c3cnn(C4CCCCC4)c3C3CCOCC3)n2)cc1 [Example 70]', 'S1P1 (Homo sapiens (Human), UniProt P21453)', 7.09),
  ('Fc1ccc(F)c(-c2noc(-c3cnn(C4CCOCC4)c3-c3ccccc3)n2)c1 [Example 33]', 'S1P1 (Homo sapiens (Human), UniProt P21453)', 6.67),
  ('CC(C)Cn1ncc(-c2nc(-c3ccc(CNCCC(=O)O)cc3)no2)c1-c1ccncc1 [Example 89]', 'S1P1 (Homo sapiens (Human), UniProt P21453)', 7.92);

a: COCc1c(-c2nc(-c3ccc(Cn4cccn4)cc3)no2)cnn1C1CCCCC1 [Example 114]
b: COCc1c(-c2nc(-c3ccc4c(c3)CN(CCC(=O)O)CC4)no2)cnn1C1CCCCC1 [Example 118]
c: COCCc1c(-c2nc(-c3ccc(Cn4cncn4)cc3)no2)cnn1C1CCCCC1 [Example 111]
## Task Parameters: sort_field (pEC50), sort_dir (desc). Order the labels as requested and list them.
## Result c, a, b

I: Fc1ccc(F)c(-c2noc(-c3cnn(CC(F)(F)F)c3-c3ccncc3)n2)c1 [Example 24]
II: COCc1c(-c2nc(-c3ccc(Cn4cncn4)cc3)no2)cnn1C1CCCCC1 [Example 107]
## Task // pick larger pEC50 from pair: I vs II Give the label of your selection.
## Result II
(II: 7.35, I: 6.53)

P: COCc1c(-c2nc(-c3ccc(CO)cc3)no2)cnn1CC(C)C [Example 69]
Q: FC(F)(F)c1cccc(-c2noc(-c3cnn(C4CCCCC4)c3-c3ccncc3)n2)c1 [Example 28]
## Task Between the two listed entries P and Q , which has its pEC50 at the higher number? Write down the label of the entry you select.
## Result Q

I: COCc1c(-c2nc(-c3ccc(N)nc3)no2)cnn1C1CCCCC1 [Example 124]
II: c1ccc(-c2c(-c3noc(-c4cccnc4)n3)cnn2C2CCCCC2)cc1 [Example 53]
## Task So which one has the bigger pEC50 here, I or II ? Answer with the label corresponding to your selection.
## Result II
(II: 6.79, I: 6.42)

a: CC(C)Cn1ncc(-c2nc(-c3ccc4[nH]ncc4c3)no2)c1-c1ccncc1 [Example 40]
b: COCc1c(-c2nc(-c3ccc(Cn4ccnc4)cc3)no2)cnn1C1CCCCC1 [Example 119]
c: Cn1cc(-c2nc(-c3cc(F)ccc3F)no2)c(C(C)(C)C)n1 [Example 16]
d: COCc1c(-c2nc(-c3ccc(CN4CC(C(=O)O)C4)cc3)no2)cnn1CC(C)C [Example 76]
## Task Order the records, beginning with the lowest pEC50 and ending with the highest. Please, when replying, give the labels in the order that was requested.
## Result c, b, d, a
(c: 6.05, b: 7.18, d: 7.64, a: 7.96)

A: OCc1ccc(-c2noc(-c3cnn(C4CCCCC4)c3C3CCCO3)n2)cc1 (centres unmarked) [Example 117]
B: Fc1ccc(F)c(-c2noc(-c3cnn(CCNC4CC4)c3-c3ccccc3)n2)c1 [Example 35]
C: COCCc1c(-c2nc(-c3ccc(CO)cc3)no2)cnn1C1CCCCC1 [Example 115]
## Task Sort these molecules on pEC50 so the largest reading comes first. To answer, arrange all of the labels according to the requested order.
## Result A, C, B
(A: 7.96, C: 6.87, B: 6.03)

P: Fc1ccc(-n2ncc(-c3nc(-c4cc(F)ccc4F)no3)c2-c2ccccc2)cc1 [Example 6]
Q: O=C(O)C1CN(Cc2ccc(-c3noc(-c4cnn(C5CCCCC5)c4-c4ccncc4)n3)cc2)C1 [Example 42]
## Task Name the one with the greater pEC50 value, either P or Q as given. # answer = label of selected item
## Result Q

1: Cc1c(-c2nc(-c3cc(F)ccc3F)no2)cnn1-c1ccccc1 [Example 15]
2: CC(C)Cn1ncc(-c2nc(-c3cc(F)ccc3F)no2)c1-c1ccncc1 [Example 19]
3: CNCc1ccc(-c2noc(-c3cnn(CC(C)(C)C)c3-c3ccncc3)n2)cc1 [Example 104]
4: O=C(O)CCNCc1ccc(-c2noc(-c3cnn(C4CCCCC4)c3C3CCOCC3)n2)cc1 [Example 102]
5: CCOc1c(-c2nc(-c3cc(F)ccc3F)no2)cnn1-c1ccccc1C [Example 112]
## Task Please list these molecules in decreasing order of pEC50. Answer format: the labels, ordered as requested.
## Result 4, 2, 5, 1, 3
(4: 8.68, 2: 7.74, 5: 7.03, 1: 6.72, 3: 6.50)

----------
target or system: S1P3 (Homo sapiens (Human), UniProt Q99500)
Sequence (Q99500 whole entry, species assumed): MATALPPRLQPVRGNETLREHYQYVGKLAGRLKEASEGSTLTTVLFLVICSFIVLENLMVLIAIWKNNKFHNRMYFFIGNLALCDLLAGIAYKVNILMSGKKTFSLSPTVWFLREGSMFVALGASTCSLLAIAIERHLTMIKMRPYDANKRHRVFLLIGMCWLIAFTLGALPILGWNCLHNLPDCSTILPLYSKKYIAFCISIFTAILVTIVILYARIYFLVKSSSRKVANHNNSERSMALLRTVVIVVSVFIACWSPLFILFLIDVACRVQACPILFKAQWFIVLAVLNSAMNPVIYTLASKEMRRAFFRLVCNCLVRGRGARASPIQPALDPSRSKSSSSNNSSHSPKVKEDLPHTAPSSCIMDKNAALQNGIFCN
assay explanation: 35S-GTPγS binding, membranes from CHO cells expressing S1P3
particulars: CHO cell membranes
endpoint name: EC50 (µM)

# count of solved cases: 2
INSERT INTO results (compound, endpoint_name, reading) VALUES
  ('CN(C)Cc1ccc(-c2noc(-c3cnn(C4CCCCC4)c3-c3ccncc3)n2)cc1 [Example 41]', 'EC50', 0.486),
  ('O=C(O)C1CN(Cc2ccc(-c3noc(-c4cnn(C5CCCCC5)c4C4CCOCC4)n3)cc2)C1 [Example 97]', 'EC50', 0.138);

1: FC(F)(F)c1cccc(-c2noc(-c3cnn(C4CCCCC4)c3-c3ccncc3)n2)c1 [Example 28]
2: CC(C)Cn1ncc(-c2nc(-c3ccc(CN4CC(C(=O)O)C4)cc3)no2)c1-c1ccncc1 [Example 79]
## Task Of 1 and 2 , whose reported EC50 is the larger number? Please identify the chosen entry by its label.
## Result 1

----------
target or system: S1P1 (Homo sapiens (Human), UniProt P21453)
assay explanation: 35S-GTPγS binding, membranes from CHO cells expressing S1P1
particulars: CHO cell membranes
endpoint name: EC50 (µM)

1: COCc1c(-c2nc(-c3ccc(CNCCC(=O)O)cc3)no2)cnn1CC(C)C [Example 84]
2: c1cc(-c2c(-c3nc(-c4ccc5c(c4)CNCC5)no3)cnn2C2CCCCC2)ccn1 [Example 39]
3: CNCc1ccc(-c2noc(-c3cnn(CCc4ccccc4)c3-c3ccncc3)n2)cc1 [Example 106]
## Task For the molecules shown above, give the order from largest EC50 to smallest. Please respond with the labels ordered as the question requires.
## Result 3, 1, 2

----------
target or system: S1P1 (Homo sapiens (Human), UniProt P21453)
assay explanation: 35S-GTPγS binding, membranes from CHO cells expressing S1P1
particulars: CHO cell membranes
endpoint name: EC50 (nM)

Illustrative cases are given below, each with its answer.
INSERT INTO measurements (compound, target_or_system, reading_unit, reading) VALUES
  ('CC(C)(C)Cn1ncc(-c2nc(-c3ccc(CN4CC(C(=O)O)C4)cc3)no2)c1-c1ccncc1 [Example 105]', 'S1P1 (Homo sapiens (Human), UniProt P21453)', 'nM', 42),
  ('COCCc1c(-c2nc(-c3cc(F)ccc3F)no2)cnn1C1CCCCC1 [Example 103]', 'S1P1 (Homo sapiens (Human), UniProt P21453)', 'nM', 35),
  ('CC(C)Cn1ncc(-c2nc(-c3ccc(CO)cc3)no2)c1-c1ccncc1 [Example 54]', 'S1P1 (Homo sapiens (Human), UniProt P21453)', 'nM', 189),
  ('CC(C)n1ncc(-c2nc(-c3cc(F)ccc3F)no2)c1-c1ccccc1 [Example 10]', 'S1P1 (Homo sapiens (Human), UniProt P21453)', 'nM', 172);

I: CC(C)Cn1ncc(-c2nc(-c3cccc(S(C)(=O)=O)c3)no2)c1-c1ccncc1 [Example 43]
II: CS(=O)(=O)c1cccc(-c2nc(-c3cnn(C4CCCCC4)c3-c3ccccc3)no2)c1 [Example 58]
III: OCc1ccc(-c2noc(-c3cnn(C4CCCCC4)c3-c3ccncc3)n2)cc1 [Example 29]
IV: COCc1c(-c2nc(-c3ccc(CCN4CCC(C(=O)OC)CC4)cc3)no2)cnn1C1CCCCC1 [Example 129]
## Task List by increasing EC50. # answer = labels listed in requested order
## Result III, II, I, IV
(III: 24 nM, II: 157 nM, I: 292 nM, IV: 438 nM)
